Test system: Human papillomavirus type 1a E7 protein (residues 1-88)
Assay: HPV1a E7 small-molecule binders, primary screen, biochemical, small-molecule microarray, residues 1-88, 635 nm (AID 1129)
Conditions: small-molecule microarray binding, fluorescence 635 nm; higher = more signal
readout_label: composite z-score

INSERT INTO measurements (compound, recorded_value) VALUES
  ('COC(=O)C1=CC(CCCO)=CC(c2ccc(CN3CCCC3)cc2)N(Cc2cc3c(cc2Br)OCO3)C=C1C(=O)OC (stereo not drawn)', 1.22);

Give composite z-score for each listed item.
1. C=CC1c2cc(O)c(OC)cc2CCN1Cc1ccc([N+](=O)[O-])o1 (stereo not drawn)
2. COc1ccc(C(O)C2C=CC3C(=O)N(c4ccccc4)C(=O)C3N2Nc2ccccc2F)cc1 (stereo not drawn)
3. Nc1cc(Br)ccc1C(=O)O
4. Cc1cccc([C@H]2C[C@H]3C(I)=C[C@@H]2C(=O)[C@]32CO2)c1
5. O=C1N[C@@H](Cc2ccccc2)C(=O)N2[C@@H]1C[C@@H](C(=O)O)[C@H]2c1ccc(O)cc1
6. CC(C)OC(=O)CC(=O)CC(O)c1ccc([N+](=O)[O-])cc1 (stereo not drawn)
7. Cc1ccc(S[C@]2(C(=O)NCC(C)C)CC(=O)N(C3Cc4ccccc4C3)[C@@H]2c2ccc(CO)cc2I)cc1

1: -0.354; 2: 1.18; 3: 0.319; 4: -0.479; 5: -0.219; 6: 0.304; 7: 0.27

Give composite z-score for each listed item.
1. CCOC(=O)C=Cc1ccccc1O
2. CN(C)CCCNC(=O)[C@@H]1c2ccccc2C(=O)N(C2CCCCC2)[C@H]1c1ccc(CO)cc1
3. CC(=O)n1cc(C(O)C2C=CC3C(=O)N(c4ccccc4)C(=O)C3N2Nc2ccc(C(C)C)cc2)c2ccccc21 (stereo not drawn)
4. O=c1cccc(-c2ccc(F)cc2)o1
5. [N-]=[N+]=Nc1ccccc1C[C@]1(C(=O)O)N=C(c2ccc(OCCCO)cc2)O[C@H]1c1ccccc1
6. C=C(COC)C(=O)CC[C@H](OC(C)=O)c1ccc(OCCO)cc1

1: 0.923; 2: 1.24; 3: 1.2; 4: 0.734; 5: 0.612; 6: 0.0389
